Assay: yeast display, Sf9 membrane polyspecificity reagent, FACS + sequencing; frameworks hold sequencing errors
MEASURED_PROPERTY: polyreactivity (PSR sort gate)

# SEQUENCE_CHAIN, OBSERVED_RESULT
measured = [
    ("QVQLVESGGGLVQAGGSLRLSCAASGSIFGTYAMGWYRQAPGKEREFVAAISWSDGSTYYADSVKGRFTISRDNAKNTVYLQMNSLNPEDTAVYYCAVRRVGSIYIDRYIYVVADYDYWGQGTQVTVSS", "low polyreactivity"),
    ("QVQLVESGGGLVQAGGSLRLSCAASGSIIVRYAMGWYRQAPGKERELVATITFRDTSTYYADSVKGRFTISRDNAKNTVYLQMNRLIPEDTAVYYCAAVRADLWDIARYDYWGQGTQVTVSS", "low polyreactivity"),
    ("QVQLVESGGGLVQAGGSLRLSCAASGFTFVYYVMGWYRQAPGKERELVAAINAGGGSTYYADSVKGRFTISRDNAKNTVYLQMNSLKPEDTAVYYCNARVRVRLGRNWSSYYYCGQGTQVTVSS", "high polyreactivity"),
    ("QVQLVESGGGIVPAGGSLRLSCAASGLIFKTYTMGWSRQAPGKEREFVAAITTSGGSTYYADSVKGRFTISRDNAKNTVYLQMNSLKPEDTAVYSCGAVWWKSFQGSSYRMNYWGQGTQVTVSS", "high polyreactivity"),
    ("QVQLVESGGGLVQAGGSLRLSCAASGRTFFDYAMGWYRQAPGKERELVAAITSSGSSTYYADSVKGRFTISRDNAKNTVYLQMNSLKPEDTAVYYCAAGASANKKITSYDYWGQGTQVTVSS", "low polyreactivity"),
    ("QVQLVESGGGLVQAGGSLRVSCAASGRTFYANVRGWYRQAPGKERELGAAIAASGGSTYYADSVKGRVTISRDNAKNTVYLQMNRLKPEDTAGYYCYKVVRWPGTYLRYVISDLDYWGQGSQVTVSS", "low polyreactivity"),
    ("QVQLVESGGGLVQAGGSLRLSCAASGGTFHYYAMGWYRQAPGKERELVAAINRSGDSTYYADSVKGRFTISRDNAKNTVYLQMNSLKPEDTAVFYCAVSYYGADGNPFPHDYWGQGTQVTVSS", "low polyreactivity"),
    ("QVQLVESGGGLVQAGGSLRLSCAASGFTFDDNAMGWYRQAPGKERELVATISYSDGNTYYADSVKGRFTISRDNAKNTVYLQMNSLKPEDTAVYYCAADEWAVYYIGLDYDYWGQGTQVTVSS", "low polyreactivity"),
    ("QDQHVESGGGLVQAGGSLRLSCAASGFTFDFYAMGWYRQAPGKERELVAAISKNDGTTYYADSVKGRFTISRDNAKNTVYLQMNSLKPEDTGVYYCAAESGYPVYTYVSSGDYWGQGTQVTVSS", "low polyreactivity"),
    ("QVQLQERAAWCRRAGSLRLSCAASGNISDYYFMGWYRQAPGKERERVAAIAPGSKTYYADSVKGRFTISRDNAKNTVYLQMNSLKPEDTAVCFCAANSTQYTWFDYWGQGTQVPVSS", "low polyreactivity"),
    ("QVQLVESGGGLVQAGGSLRLSCAASGSTFYYYAMGWYSPAPGKERELVAAISRGGGSTNYADSVKGRFTISRDNAKNTVYLQMNSLKPEDTAVYYCATDYKYYGRPYNYWGQGTQVTVSS", "high polyreactivity"),
]
